# logD annotations
Experiment: physchem
Settings: octan-1-ol/water, pH 7.4

Compound	logD
CCN(CC)C(C)C(=O)c1ccccc1 (centres undefined) [DIETHYLPROPION]	1.18
Cc1nc2n(c(=O)c1CCN1CCC(c3noc4cc(F)ccc34)CC1)CCCC2 [RISPERIDONE]	2.05
CC(N)Cc1c[nH]c2ccc(OCc3cccs3)cc12 (centres undefined) [BW-723C86]	0.48
Cn1nnc(-c2ccc(-c3ccc(N4C[C@H](COc5ccon5)OC4=O)cc3F)cn2)n1	1.24
COc1ccc2c(c1)N(CCN1CCC(NCc3ccc4c(n3)NC(=O)CO4)CC1)C(=O)CO2	0.87
S=C(NC1CCCCC1)N1CCC(c2cnc[nH]2)CC1 [THIOPERAMIDE]	2.3
CC(C)[C@@H](CN1CCCCC1)N(C)C(=O)Cc1ccc(Cl)c(Cl)c1	2.87
C[N+]1(C)[C@@H]2C[C@@H](OC(=O)C(O)(c3cccs3)c3cccs3)C[C@H]1[C@@H]1O[C@@H]12 [TIOTROPIUM]	-0.25
CN1CCC[C@H]1c1cccnc1 [NICOTINE]	0.5

----------
# hepatocyte CLint annotations
Test: in vitro
Conditions: hepatocytes
Parameter: hepatocyte CLint

Substance smiles	Parameter	Result value
C[C@@H](C(=O)NS(C)(=O)=O)c1ccc(OS(=O)(=O)C(F)(F)F)cc1	hepatocyte CLint	< 3 µL/min/1e6 cells
Cc1ccccc1NC(=O)CCS(=O)(=O)c1ccc(Br)s1	hepatocyte CLint	> 150 µL/min/1e6 cells
COc1cccc(CNc2nc(NC(C)C)nc3ccsc23)c1OC	hepatocyte CLint	> 150 µL/min/1e6 cells

----------
Assay: physchem
# pKa annotations
Parameter: pKa

Compound	Parameter	Comparison operator	Result value
NCc1ccccc1CC(=O)N[C@@H]1C(=O)N2C(C(=O)O)=C(CSc3nnnn3CC(=O)O)CS[C@H]12 [CEFORANIDE]	pKa	=	2.01
O=C(O)c1cccc(N2CCC(CN3CCC(Oc4ccc(Cl)c(Cl)c4)CC3)CC2)c1	pKa	=	4.3
Cc1nnc(NS(=O)(=O)c2ccc(N)cc2)s1	pKa	=	5.4
CCC(CC)NC(=O)c1cn(-c2ccccc2)nc1NS(=O)(=O)c1ccc(C)cc1	pKa	=	5.3
O=C(O)c1ccccc1N1CCC(CN2CCC(Oc3ccc(Cl)c(Cl)c3)CC2)CC1	pKa	=	3.2
O=C(Nc1ccc([N+](=O)[O-])cc1O)Nc1ccccc1Br	pKa	=	7.7
CCCN(CCC)C1CCc2c(O)cccc2C1 (stereo unspecified)	pKa	=	9.25
O=C(O)c1ccc(N2CCC(CN3CCC(Oc4ccc(Cl)c(Cl)c4)CC3)CC2)cc1	pKa	=	4.55
Cc1ccc(S(=O)(=O)Nc2c(C(=O)N[C@@H](C)C(C)(C)C)c(C)nn2C(C)(C)C)cc1	pKa	=	5.5
CCC(CC)NC(=O)c1c(C)nn(-c2ccccc2)c1NS(=O)(=O)c1ccc(C)cc1	pKa	=	4.2
CCS(=O)(=O)c1ccc(-c2cc(C(F)(F)F)ccc2CCC(=O)O)c(C)c1	pKa	=	4.2
Cn1c(C(=O)O)c(CCCOc2cccc3ccccc23)c2ccccc21	pKa	=	4.01
CO/N=C1\CN(c2nc3c(cc2F)c(=O)c(C(=O)O)cn3C2CC2)CC1CN (stereo unspecified)	pKa	=	6.36
O=C(O)c1ccccc1Nc1cccc(C(F)(F)F)c1	pKa	=	3.56
CC1=C(CC(=O)O)c2cc(F)ccc2/C1=C\c1ccc([S+](C)[O-])cc1 (stereo unspecified)	pKa	=	3.9
Cc1ccc2c(c1)c(-c1ccnc3c(Cl)cccc13)c(C)n2CC(=O)O	pKa	=	2.9
CN(C)c1ccccc1S(=O)(=O)NC(=O)N1CCC(N2CCC(Oc3ccc(Cl)c(Cl)c3)CC2)CC1	pKa	=	6.6
CCCc1c2nccc(Cl)c2cc2c(=O)cc(C(=O)O)oc12	pKa	=	2.5
Nc1nc2nc(SCc3ccccc3)[nH]c(=O)c2s1	pKa	=	7.1
O=C(O)c1ccc(-c2ccc(Cl)c(C(=O)NCC34CC5CC(CC(C5)C3)C4)c2)cc1	pKa	=	4.1
O=C(NO)c1ccccc1O [SALICYLHYDROXAMIC ACID]	pKa	=	7.5
CC(C)(C)c1cc(NC(=O)NCc2ccccc2Sc2ccc3nnc(-c4ccccc4SCCO)n3c2)n(-c2ccc(O)c(Cl)c2)n1	pKa	=	7.17
Cc1nn(C2CCOCC2)c(NS(=O)(=O)c2ccc(C3CC3)cc2)c1C(=O)N[C@@H](C)C(C)(C)C	pKa	=	5
O=C(O)CCc1nc(-c2ccccc2)c(-c2ccccc2)o1	pKa	=	3.87
Cc1c(O)nc(N)nc1-c1ccccc1	pKa	=	9.61
CCS(=O)(=O)c1ccc(-c2cc(Cl)ccc2OCC(=O)O)c(Cl)c1	pKa	=	3.4
COc1c(C)c2c(c(O)c1C/C=C(\C)CCC(=O)OCCN1CCOCC1)C(=O)OC2 [MYCOPHENOLATE MOFETIL]	pKa	=	8.01
Cn1nnnc1SCC1=C(C(=O)O)N2C(=O)[C@@H](NC(=O)[C@H](O)c3ccccc3)[C@H]2SC1	pKa	=	3.29
CC1=NN(C(=O)CCS)C(C(=O)O)S1 (stereo unspecified)	pKa	=	2.4
CC(=O)Nc1ccc(O)cc1	pKa	=	9.48
O=C(O)CCCCCCCC(=O)O	pKa	=	3.49
CON=C(C(=O)N[C@@H]1C(=O)N2C(C(=O)O)=C(COC(C)=O)CS[C@H]12)c1csc(N)n1	pKa	=	3.35
O=C(O)COc1cccc(C(=O)N2CCC(N3CCC(Oc4ccc(Cl)c(Cl)c4)CC3)CC2)c1	pKa	=	2.9
COc1ccc2c(=O)cc(C(=O)O)oc2c1	pKa	<	2
O=C(NCCc1ccccc1Cl)c1cc(-n2ncc(=O)[nH]c2=O)ccc1Cl	pKa	=	6.1
Cc1cc(CN2Cc3ccccc3C[C@H]2C(=O)Nc2ccc(Cl)cc2Cl)ccc1OCC(=O)O	pKa	=	3.1
